- ASSAY_EXPLANATION: protein stability index of a GFP-peptide fusion (GPS, HEK-293T) (PSI 1-6); higher = more stable;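 further: 24-mer peptide tiles fused after GFP, lentivirally expressed, FACS-sorted into six equal bins by GFP/DsRed ratio, decoded by Illumina sequencing, PSI is the read-weighted mean bin number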
- EXPERIMENTAL_CONTEXT: treatment: MLN4924 1 uM, 8 h; c terminus: a fixed tail appended
Measured protein stability index, listed per entry for reference.
Please respond with just the number, no unit label.

Sample records with protein stability index:
### Prompt Please report the recorded protein stability index for EKKKAHYRQSSFPHCSDLMPSGSE [KCNA4] .
### Response 4.31

### Prompt Could you tell me which protein stability index is on file for SGSESDHTTRSSLRGPRERAPSER [DVL3] ?
### Response 5.39

### Prompt For SWTGDGWEFKLSDPDEVARRWGKR [ETS1] , what is its reported protein stability index?
### Response 3.88

### Prompt Can you share its protein stability index? I mean this sequence: SSVQKALFEEEDHVKKLQQKVATL [CCDC3]
### Response 4.49

### Prompt Which protein stability index is reported for this sequence? YKLVGSPPWKEAFRQRCLERMRNS [RPAIN]
### Response 2.98

### Prompt Consider the sequence shown here: MSYDEISQLRLVCKRMDLVCQRML [FBXO28] What is its recorded protein stability index?
### Response 2.25

New cases:
### Prompt Requested field: protein stability index. Item: QGLRPRTVSSPIPYTPSPSSSRPI [CCDC6]
### Response 4.7

### Prompt Given SGLIQTVFISSYMVLAPVFGYLGD [SPNS1] , state its recorded protein stability index.
### Response 3.16

* * *

Recorded protein stability index for the following sequences
- ASSAY_EXPLANATION: protein stability index of a GFP-peptide fusion (GPS, HEK-293T) (PSI 1-6); higher = more stable
- EXPERIMENTAL_CONTEXT: treatment: DMSO; c terminus: a fixed tail appended
No unit in the answer, please; the number alone is enough.

// worked examples, protein stability index included
### Prompt Can you look up the measured protein stability index of GLQNCVYPWDENHCKEKRKTSLLD [NETO1] for me?
### Response 3.24

### Prompt Param item = VRLRTLLCKVLGVLFSVAGGLFVG [CLCN6] ; retrieve measured protein stability index.
### Response 2.87

### Prompt I am curious: what protein stability index value has been reported for SSVQKALFEEEDHVKKLQQKVATL [CCDC3] ?
### Response 4.46

Please examine the following record next.
### Prompt I am curious: what protein stability index value has been reported for ATIHGAIRLVCSRGNRLKTTSWGL [SCNN1D] ?
### Response 2.46

* * *

- ASSAY_EXPLANATION: protein stability index of a GFP-peptide fusion (GPS, HEK-293T) (PSI 1-6); higher = more stable
- EXPERIMENTAL_CONTEXT: treatment: DMSO; c terminus: a fixed tail appended
Entry flag: 1 if protein stability index reaches 3; 0 if it does not.

Worked examples follow.
### Prompt Does the reported protein stability index for EVSQQDPSHGEVGEHKDRIERQWG [ZSCAN9] fall at or above the 3 mark?
### Response 1

### Prompt Dear colleague, could you confirm whether SSRLPQPSGAGKTVVGVPSGKVSS [ZC2HC1A] has protein stability index at or above 3?
### Response 1

### Prompt Check if protein stability index >= 3 (inclusive). Item: GTPADTGDLSPGHGASAPSVSREA [PWWP2B]
### Response 1

### Prompt API: above_or_equal(metric=protein stability index, cutoff=3) for item DVESGQLLQSFHGHGADVLCLDLA [GNB5]
### Response 1

### Prompt Would you say DGLRLLGARARGVAMLGVFLVSAV [SOAT2] shows protein stability index at minimum 3?
### Response 0

Others:
### Prompt Reported protein stability index at or above 3? LDKSTTGVSEILLKTQMKMSLKCL [FEM1B]
### Response 0

### Prompt Hi, just wondering whether RTPLMKAARAGHVCTVQFLISKGA [ANKRD17] shows protein stability index of 3 or higher.
### Response 0

### Prompt Check this sequence for protein stability index at or above 3: HWNSTIKRKVDTGGFLSESKDCKP [MYBL2]
### Response 1

### Prompt Hi, just wondering whether FMYSGVENKQVVIIHHMRLQAKAL [INTS4] shows protein stability index of 3 or higher.
### Response 0

### Prompt Evaluate NFDHFEILRAIGKGSFGKVCIVQK [STK32A] : protein stability index at minimum 3?
### Response 0

* * *

- ASSAY_EXPLANATION: protein stability index of a GFP-peptide fusion (GPS, HEK-293T) (PSI 1-6); higher = more stable
- EXPERIMENTAL_CONTEXT: treatment: DMSO; c terminus: a fixed tail appended
ENDPOINT_NAME: protein stability index
Respond using a number only.

### Prompt Entry under review: RLSVPRDSACDESSCIPKAFGNPK [IRX6] . Reported protein stability index?
### Response 4.84

### Prompt Please look up its protein stability index: AVNSGGPLESIDHSVTGFLCEPDP [ALG2]
### Response 4.82

New cases:
### Prompt Given LNDRLASYLDKVRALEEANTELEV [KRT17] , state its recorded protein stability index.
### Response 4.03

### Prompt Requested field: protein stability index. Item: VKALEDFEDLCDRVFSDEDSELDN [FAM9B]
### Response 5.34

### Prompt Consider the sequence shown here: PNVLCSMSGKSPVESSLNVKTKKN [FBXO34] What is its recorded protein stability index?
### Response 4.84

* * *

- ASSAY_EXPLANATION: protein stability index of a GFP-peptide fusion (GPS, HEK-293T) (PSI 1-6); higher = more stable
- EXPERIMENTAL_CONTEXT: treatment: DMSO; c terminus: a fixed tail appended
Listing of entries alongside the reported protein stability index.
Just the number.

The following sequences have reported results that may help.
### Prompt # lookup: protein stability index of PWLRQDPMPLAPTRSHLWEAAQVV [TRIB3]
### Response 2.5

### Prompt If you can, please state the reported protein stability index value of GGIVTDTPASNHLPGWEDIESKIP [SLC19A2] .
### Response 4.77

### Prompt Quick check: protein stability index of NVLKSYIGLGHIYSGTFALIGAAA [CLCN6] ?
### Response 3.63

### Prompt Look up protein stability index: LALLLCAGQVTALPVNSPMNKGDT [CHGA]
### Response 2.68

### Prompt What protein stability index value was documented for this sequence, NAILQLVKKYKSMKLEKEEFVTLK [ESRRG] ?
### Response 2.24

Next:
### Prompt Requested field: protein stability index. Item: HEQALFIYVHILKDTRMAEEYCHK [VPS39]
### Response 2.57

* * *

Item-by-item account of protein stability index
- ASSAY_EXPLANATION: protein stability index of a GFP-peptide fusion (GPS, HEK-293T) (PSI 1-6); higher = more stable
- EXPERIMENTAL_CONTEXT: treatment: MLN4924 1 uM, 8 h; c terminus: a fixed tail appended
Reply briefly: the number, and no unit.

Worked cases, answers included:
### Prompt So what does the record say about protein stability index for PYSKTLVLQTSEGKALQQYPSERE [TRIM9] ?
### Response 4.66

### Prompt // returns reported protein stability index for input IPKVELQISIYGVKILEPKTKEVQ [GULP1]
### Response 1.98

### Prompt Any idea what its protein stability index is? The sequence is SVSNSTQTSSSSSQSETSSAVSTP [DLC1]
### Response 5.43

### Prompt Fill in the blank: the reported protein stability index of LFQIDVYDFMNSAFSPIVILTERV [MIA2] is ____.
### Response 3.06

### Prompt Look up protein stability index: CDELELHQRFLREGRFWKSKNEDR [ZMYND11]
### Response 4.31

***
### Prompt Name the reported protein stability index value associated with the sequence LSDEDDGFVDLLDGENLKNEEETP [CDC25A]
### Response 5.4

### Prompt Which protein stability index is reported for this sequence? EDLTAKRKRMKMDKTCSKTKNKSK [FAM9B]
### Response 5.16

### Prompt State the recorded protein stability index for this entry: LLKTLYNSIKNEKLEWAIDEDELR [PSD2]
### Response 2.07

### Prompt Form field: reported protein stability index of LLKAGADVNKTDHSQRTALHLAAQ [INVS]
### Response 4.09

### Prompt Need protein stability index, item CLRCWDQRTIMKPLEYQFKSQIMS [TLE6]
### Response 2.47

### Prompt Requested field: protein stability index. Item: PNFVKDLEEDLYELFKKDPGFDRG [PI4K2A]
### Response 3.72

### Prompt Item under review: DREGPSSSKLVTKKAPQPAKPRLA [HDAC6] . Reported protein stability index?
### Response 5.06
